measurement-protocol: Single-dose mouse pharmacokinetics of prodrugs with or without ABT
Assay type: in vivo
stated-conditions: male, CD-1, mouse, plasma, ip, 26 mg/kg, AUC of analyte after 26 mg/kg of the corresponding prodrug; male CD-1 mice; no ABT; read-out: Avg AUC resulting from 26-mg/kg dose, i.p. dosing
Procedure: The area under the curve (AUC) was calculated from time zero to the time of the last measurable concentration. The active metabolite concentrations in plasma (APX001A, APX2039, APX2020, and APX2041) were determined by liquid chromatography-tandem mass spectrometry. PK parameters were determined using Phoenix WinNonlin (v7.0) software and a noncompartmental model.
parameter: AUC (ng·h/mL)

molecule=Nc1ncccc1-c1cc(Cc2ccc(OCc3ccccc3)nc2)no1 parameter=AUC display_unit=ng·h/mL observed_result=4680
molecule="Nc1ncccc1-c1cc(Cc2ccc(COc3ccccn3)cc2)no1 [APX001A]" parameter=AUC display_unit=ng·h/mL observed_result=4360

1 = Nc1ncccc1-c1cc(Cc2ccc(OCc3ccccc3)cc2)no1
2 = Nc1ncccc1-c1cc(Cc2ccc(Oc3cccc(F)n3)cc2)no1
In: Just tell me: smaller AUC value, 1 or 2 ? Identify your selection by its label.
Out: 1
(1: 4310 ng·h/mL, 2: 11800 ng·h/mL)

###

System: FLC-susceptible and FLC-nonsusceptible/resistant strains of C. neoformans and C. gattii
measurement-protocol: Broth microdilution, summary over the 18-strain Cryptococcus collection
Type: cell-based, Cryptococcus neoformans and Cryptococcus gattii
stated-conditions: 18 strains of C. neoformans and C. gattii
parameter: MIC90 (µg/mL)

molecule="C[C@@H]1[C@H](O)[C@@H](C)/C=C/C=C/C=C/C=C/C=C/C=C/C=C/[C@H](O[C@@H]2O[C@H](C)[C@@H](O)[C@H](N)[C@@H]2O)C[C@@H]2O[C@](O)(C[C@@H](O)C[C@@H](O)[C@H](O)CC[C@@H](O)C[C@@H](O)CC(=O)O[C@H]1C)C[C@H](O)[C@H]2C(=O)O [AMB, amphotericin B, reference compound]" observed_result=0.25

1 = Nc1ncccc1-c1cc(Cc2ccc(OCc3ccccc3)nc2)no1 [APX2041]
2 = Nc1ncccc1-c1cc(Cc2ccc(OCc3ccccc3)cc2)no1 [APX2020]
In: Just tell me: smaller MIC90 value, 1 or 2 ? Identify your selection by its label.
Out: 1
(1: 0.125 µg/mL, 2: 0.25 µg/mL)

###

System: FLC-susceptible and FLC-nonsusceptible/resistant strains of C. neoformans and C. gattii
measurement-protocol: Broth microdilution, summary over the 18-strain Cryptococcus collection
Assay type: cell-based, Cryptococcus neoformans and Cryptococcus gattii
stated-conditions: 18 strains of C. neoformans and C. gattii
parameter: MIC90 (µg/mL)

1 = Nc1ncccc1-c1cc(Cc2ccc(COc3ccccn3)cc2)no1 [APX001A]
2 = Nc1ncccc1-c1cc(Cc2ccc(Oc3cccc(F)n3)cc2)no1 [APX2039]
3 = OC(Cn1cncn1)(Cn1cncn1)c1ccc(F)cc1F [FLC, fluconazole, reference compound]
In: Ascending by MIC90, please: list the compounds accordingly. Reply with the labels, ordered as the question asks.
Out: 2, 1, 3
(2: 0.031 µg/mL, 1: 0.5 µg/mL, 3: 64 µg/mL)

###

measurement-protocol: Single-dose mouse pharmacokinetics of prodrugs with or without ABT
Assay type: in vivo
stated-conditions: male, CD-1, mouse, plasma, intraperitoneal, 26 mg/kg, AUC of analyte after 26 mg/kg prodrug; 100 mg/kg ABT orally 2 h before; read-out: Avg AUC resulting from 26-mg/kg dose, i.p. dosing + ABT
parameter: AUC (ng·h/mL)

Example results:
compound="Nc1ncccc1-c1cc(Cc2ccc(COc3ccccn3)cc2)no1 [APX001A]" observed_result=24300
compound=Nc1ncccc1-c1cc(Cc2ccc(Oc3cccc(F)n3)cc2)no1 observed_result=97200

I = Nc1ncccc1-c1cc(Cc2ccc(OCc3ccccc3)nc2)no1
II = Nc1ncccc1-c1cc(Cc2ccc(OCc3ccccc3)cc2)no1
In: Form field 'greater AUC' accepts I or II ; which applies? Identify your selection by its label.
Out: I

###

Test system: FLC-susceptible and FLC-nonsusceptible/resistant strains of C. neoformans and C. gattii
measurement-protocol: Broth microdilution, summary over the 18-strain Cryptococcus collection
Type: cell-based, Cryptococcus neoformans and Cryptococcus gattii
stated-conditions: 18 strains of C. neoformans and C. gattii; read-out: Geometric mean MIC
parameter: MIC (µg/mL)

Example results:
molecule="OC(Cn1cncn1)(Cn1cncn1)c1ccc(F)cc1F [FLC, fluconazole, reference compound]" target_or_system="FLC-susceptible and FLC-nonsusceptible/resistant strains of C. neoformans and C. gattii" parameter=MIC display_unit=µg/mL observed_result=3.56
molecule="C[C@@H]1[C@H](O)[C@@H](C)/C=C/C=C/C=C/C=C/C=C/C=C/C=C/[C@H](O[C@@H]2O[C@H](C)[C@@H](O)[C@H](N)[C@@H]2O)C[C@@H]2O[C@](O)(C[C@@H](O)C[C@@H](O)[C@H](O)CC[C@@H](O)C[C@@H](O)CC(=O)O[C@H]1C)C[C@H](O)[C@H]2C(=O)O [AMB, amphotericin B, reference compound]" target_or_system="FLC-susceptible and FLC-nonsusceptible/resistant strains of C. neoformans and C. gattii" parameter=MIC display_unit=µg/mL observed_result=0.215

I = Nc1ncccc1-c1cc(Cc2ccc(OCc3ccccc3)nc2)no1
II = Nc1ncccc1-c1cc(Cc2ccc(OCc3ccccc3)cc2)no1
III = Nc1ncccc1-c1cc(Cc2ccc(COc3ccccn3)cc2)no1 [APX001A]
IV = Nc1ncccc1-c1cc(Cc2ccc(Oc3cccc(F)n3)cc2)no1
In: Arrange these 4 molecules in increasing order of MIC. Reply with the labels, ordered as the question asks.
Out: IV, I, II, III

###

Test system: C. neoformans
measurement-protocol: Broth microdilution susceptibility testing (CLSI M27-A3)
Assay type: cell-based, Cryptococcus neoformans
stated-conditions: Cryptococcus neoformans, 72 h, Table 1; 50% growth inhibition for FLC, caspofungin and APX compounds, 100% for AMB; 72 h; read-out: MIC, C. neoformans H99
parameter: MIC (µg/mL)

molecule=Nc1ncccc1-c1cc(Cc2ccc(OCc3ccccc3)nc2)no1 parameter=MIC observed_result=0.031
molecule="C[C@@H]1[C@H](O)[C@@H](C)/C=C/C=C/C=C/C=C/C=C/C=C/C=C/[C@H](O[C@@H]2O[C@H](C)[C@@H](O)[C@H](N)[C@@H]2O)C[C@@H]2O[C@](O)(C[C@@H](O)C[C@@H](O)[C@H](O)CC[C@@H](O)C[C@@H](O)CC(=O)O[C@H]1C)C[C@H](O)[C@H]2C(=O)O [AMB, amphotericin B, reference compound]" parameter=MIC observed_result=0.25

1 = Nc1ncccc1-c1cc(Cc2ccc(Oc3cccc(F)n3)cc2)no1
2 = Nc1ncccc1-c1cc(Cc2ccc(OCc3ccccc3)cc2)no1
3 = Nc1ncccc1-c1cc(Cc2ccc(COc3ccccn3)cc2)no1 [APX001A]
4 = OC(Cn1cncn1)(Cn1cncn1)c1ccc(F)cc1F [FLC, fluconazole, reference compound]
In: Arrange these 4 molecules in increasing order of MIC. Reply with the labels, ordered as the question asks.
Out: 1, 2, 3, 4

###

System: C. gattii
measurement-protocol: Broth microdilution susceptibility testing (CLSI M27-A3)
Assay type: cell-based
stated-conditions: Cryptococcus gattii, C. gattii isolate MYA-4560 (first listing, r17); read-out: MIC
parameter: MIC (µg/mL)

molecule=Nc1ncccc1-c1cc(Cc2ccc(Oc3cccc(F)n3)cc2)no1 target_or_system="C. gattii" parameter=MIC observed_result=0.008
molecule=Nc1ncccc1-c1cc(Cc2ccc(OCc3ccccc3)nc2)no1 target_or_system="C. gattii" parameter=MIC observed_result=0.016
molecule="C[C@@H]1[C@H](O)[C@@H](C)/C=C/C=C/C=C/C=C/C=C/C=C/C=C/[C@H](O[C@@H]2O[C@H](C)[C@@H](O)[C@H](N)[C@@H]2O)C[C@@H]2O[C@](O)(C[C@@H](O)C[C@@H](O)[C@H](O)CC[C@@H](O)C[C@@H](O)CC(=O)O[C@H]1C)C[C@H](O)[C@H]2C(=O)O [AMB, amphotericin B, reference compound]" target_or_system="C. gattii" parameter=MIC observed_result=0.063
molecule=Nc1ncccc1-c1cc(Cc2ccc(OCc3ccccc3)cc2)no1 target_or_system="C. gattii" parameter=MIC observed_result=0.063

P = Nc1ncccc1-c1cc(Cc2ccc(COc3ccccn3)cc2)no1 [APX001A]
Q = OC(Cn1cncn1)(Cn1cncn1)c1ccc(F)cc1F [FLC, fluconazole, reference compound]
In: Form field 'greater MIC' accepts P or Q ; which applies? Identify your selection by its label.
Out: Q
(Q: 1 µg/mL, P: 0.25 µg/mL)

###

System: C. neoformans
measurement-protocol: Broth microdilution susceptibility testing (CLSI M27-A3)
Format: cell-based, Cryptococcus neoformans
stated-conditions: Cryptococcus neoformans, C. neoformans isolate MYA-4564; read-out: MIC
parameter: MIC (µg/mL)

A = Nc1ncccc1-c1cc(Cc2ccc(COc3ccccn3)cc2)no1 [APX001A]
B = OC(Cn1cncn1)(Cn1cncn1)c1ccc(F)cc1F [FLC, fluconazole, reference compound]
In: Form field 'greater MIC' accepts A or B ; which applies? Identify your selection by its label.
Out: B
(B: 4 µg/mL, A: 0.125 µg/mL)

a = Nc1ncccc1-c1cc(Cc2ccc(OCc3ccccc3)nc2)no1
b = Nc1ncccc1-c1cc(Cc2ccc(OCc3ccccc3)cc2)no1
c = Nc1ncccc1-c1cc(Cc2ccc(Oc3cccc(F)n3)cc2)no1
In: Put the entries in order of MIC, starting with the largest number. Reply with the labels, ordered as the question asks.
Out: b, a, c

src = paper PMC6105804
